assay-explanation: yeast display, Sf9 membrane polyspecificity reagent, FACS + sequencing; frameworks hold sequencing errors
metric-name: polyreactivity (PSR sort gate)

In: Hello, please tell me recorded polyreactivity (PSR sort gate) for this one: `QVQHVESGGGLVQAGGSLRLRCAASGSIFYRYVMGWYRQAHGKERELVAAISVSGGTTYYADSVKGRITISRDNAKNTVYLQMNRLKPEDTAVYYCAAEDSLTEDPAHDYWGQGTQVTVSS`
Out: low polyreactivity

In: Give polyreactivity (PSR sort gate) for `QVQLVESGGGLVQAGGSLRLSCAASGSTFVYNTMGWYRQAPGKERELVAAISKSGTNTFYADSVKGRFTISRDNAKNTVYLQMNSLKPEDTAVYYCAVRSVPRWFTELDYWGQGTQVTVSS`
Out: low polyreactivity
